src = patent US11986471B2

Entries and their measured IC50 follow.
- Tested on: HAP1 MTAP-intact
- protocol: SDMA in-cell western assay, HAP1 MTAP-intact cell line
- Type: cell-based
- settings: Homo sapiens
measured endpoint: IC50

>>> observed("CC(=O)N1CCC(Nc2cc(C(=O)NC[C@H](O)CN3CCc4c(C)c(OCc5ocnc5C)cc(F)c4C3)ncn2)CC1 [Compound 618]")
"≥ 10 µM"
>>> observed("Cc1c(OCc2cnco2)ccc2c1CCN(C[C@@H](O)CNC(=O)c1ccnc(NC3CCN(C(=O)C(C)C)CC3)c1)C2 [Compound 427]")
"≥ 10 µM"
>>> observed("CC(C)(C)C(=O)N1CCC(Nc2cc(C(=O)NC[C@H](O)CN3CCc4cc(OCc5cnco5)ccc4C3)ccn2)CC1 [Compound 449]")
"1 to 10 µM"
>>> observed("Cc1ncoc1COc1ccc2c(c1)CCN(C[C@@H](O)CNC(=O)c1cc(Nc3cccnc3)nc(N3CCCCC3)c1)C2 [Compound 601]")
"< 1 µM"
>>> observed("CC(=O)N1CCC(Nc2cc(C(=O)NC[C@H](O)CN3CCc4c(ccc(OCc5cnco5)c4Cl)C3)ccn2)CC1 [Compound 429]")
"≥ 10 µM"
>>> observed("Cc1ncoc1COc1ccc2c(c1C)CCN(C[C@@H](O)CNC(=O)c1cc(NC3CCC3)nc(N3CCN(C(=O)C(C)C)CC3)c1)C2 [Compound 459]")
"1 to 10 µM"
>>> observed("CC(=O)N1CCN(c2nc(NC3COC3)cc(C(=O)NC[C@H](O)CN3CCc4cc(OCc5ocnc5C)ccc4C3)n2)CC1 [Compound 401]")
"≥ 10 µM"
>>> observed("CCCN(C)c1nc(NC2COC2)cc(C(=O)NC[C@H](O)CN2CCc3cc(OCc4ocnc4C)ccc3C2)n1 [Compound 390]")
"< 1 µM"
>>> observed("O=C(NC[C@H](O)CN1CCc2c(ccc(OCc3cnco3)c2Cl)C1)c1cc(NC2CCC2)nc(N2CCOCC2)c1 [Compound 288]")
"≥ 10 µM"
>>> observed("Cc1ncoc1COc1ccc2c(c1)CCN(C[C@@H](O)CNC(=O)c1cc(NC3CCC3)nc(OCCN(C)C)c1)C2 [Compound 406]")
"< 1 µM"
>>> observed("CC(C)N1CCN(c2nc(NC3COC3)cc(C(=O)NC[C@H](O)CN3CCc4cc(OCc5cnco5)ccc4C3)n2)CC1 [Compound 296]")
"≥ 10 µM"
>>> observed("CC(=O)N1CC(Nc2cc(C(=O)NC[C@H](O)CN3CCc4c(ccc(OCc5cnco5)c4Cl)C3)ccn2)C1 [Compound 380]")
"≥ 10 µM"
>>> observed("O=C(NC[C@H](O)CN1CCc2c(ccc(OCc3cnco3)c2Br)C1)c1cccc(NC2CCC2)c1 [Compound 348]")
"≥ 10 µM"
>>> observed("COCCN(C)c1nc(NC2COC2)cc(C(=O)NC[C@H](O)CN2CCc3cc(OCc4ocnc4C)ccc3C2)n1 [Compound 408]")
"< 1 µM"
>>> observed("Cc1ncoc1COc1ccc2c(c1)CCN(C[C@@H](O)CNC(=O)c1ccc(OC3CCN(Cc4ccncc4)CC3)cc1)C2 [Compound 416]")
"< 1 µM"
>>> observed("CC(C)C(=O)N1CCC(Nc2cc(C(=O)NC[C@H](O)CN3CCc4c(ccc(OCc5cnco5)c4Cl)C3)ccn2)CC1 [Compound 452]")
"≥ 10 µM"
>>> observed("COCCN(C)c1nc(NC2COC2)cc(C(=O)NC[C@H](O)CN2CCc3c(ccc(OCc4cnco4)c3Cl)C2)n1 [Compound 314]")
"≥ 10 µM"
>>> observed("O=C(NC[C@H](O)CN1CCc2cc(OCc3cnco3)c(F)cc2C1)c1ccnc(NC2CCC2)c1 [Compound 513]")
"≥ 10 µM"
>>> observed("CC(=O)N1CCC(Nc2cc(C(=O)NC[C@H](O)CN3CCc4c(ccc(OCc5conc5C)c4C)C3)ncn2)CC1 [Compound 264]")
"≥ 10 µM"
>>> observed("Cc1ncoc1COc1ccc2c(c1)CCN(C[C@@H](O)CNC(=O)c1ccnc(NC3CC4(CCC4)C3)c1)C2 [Compound 609]")
"1 to 10 µM"
>>> observed("Cc1ncoc1COc1ccc2c(c1)CCN(C[C@@H](O)CNC(=O)c1ccc3c(c1)CCN(C(=O)c1ccc(Br)cc1)C3)C2 [Compound 493]")
"1 to 10 µM"
>>> observed("CCN(C)c1nc(NC2COC2)cc(C(=O)NC[C@H](O)CN2CCc3cc(OCc4ocnc4C)ccc3C2)n1 [Compound 457]")
"< 1 µM"
>>> observed("Cc1ncoc1COc1cc2c(cc1F)CN(C[C@@H](O)CNC(=O)c1ccnc(Nc3cccnc3)c1)CC2 [Compound 600]")
"≥ 10 µM"
>>> observed("CC(=O)N1CCN(c2cc(C(=O)NC[C@H](O)CN3CCc4c(ccc(OCc5ocnc5C)c4C)C3)cc(NC3CCC3)n2)CC1 [Compound 502]")
"1 to 10 µM"
>>> observed("CC(=O)N1CCN(c2nc(NC3COC3)cc(C(=O)NC[C@H](O)CN3CCc4c(ccc(OCc5cnco5)c4Cl)C3)n2)CC1 [Compound 300]")
"≥ 10 µM"
